Data provenance: ChEMBL document CHEMBL1142367

test: Half life in rat at 5 mg/kg, po; assay type: ADME, organism-based; set-up: dose 5 mg/kg, route oral; conditions: in vivo
outcomeMeasure: half-life (h)

cpdSmiles: COC[C@]12Cc3cnn(-c4ccc(F)cc4)c3C=C1CCN(S(=O)(=O)c1ccc(F)cc1)C2
quantityUnit: h
half-life: 2.1

cpdSmiles: COC[C@]12Cc3cnn(-c4ccc(F)cc4)c3C=C1CCN(S(=O)(=O)c1ccc(C(C)(C)C)cc1)C2
quantityUnit: h
half-life: 2.9

cpdSmiles: COC[C@]12Cc3cnn(-c4ccc(F)cc4)c3C=C1CCN(S(=O)(=O)c1ccc(C(F)(F)F)cc1)C2
quantityUnit: h
half-life: 3.4

cpdSmiles: CC(C)(C)c1ccc(S(=O)(=O)N2CCC3=Cc4c(cnn4-c4ccc(F)cc4)C[C@]3(C)C2)cc1
quantityUnit: h
half-life: 2.7

P. COC[C@]12Cc3cnn(-c4ccc(F)cc4)c3C=C1CCN(S(=O)(=O)c1ccccc1)C2
Q. CC(C)(C)c1ccc(S(=O)(=O)N2CCC3=Cc4c(cnn4-c4ccc(F)cc4)C[C@]3(CN3CCOCC3)C2)cc1
Which gives the smaller half-life number: P or Q ? When you have decided, please share the label of that item.
Q
